- TEST: total protein half-life in vivo (active degradation + dilution); higher = more stable protein
- CONDITION INFO: wild type E. coli NCM3722; growth: C-lim chemostat; doubling time 12 h
Please use the following total protein half-life in vivo ranges when assigning a class: c1: < 8 h; c2: ≥ 8 h and < 10 h; c3: ≥ 10 h

>  <SEQUENCE CONTENT>
MIRNVLLAFMICSGMTLLGGCSSVMSHTGGKEGTYPGTRASATMIGDDETNWGTKSLAILDMPFTAVMDTLLLPWDVFRKDSSVRSRVEKSEANAQATNAVIPPARMPDN [P0ADM4]

>  <CLASS ASSIGNMENT>
c2

$$$$
>  <SEQUENCE CONTENT>
MGNSDRKPGLIKRLWKWWRTPSRLALGTLLLIGFVGGIVFWGGFNTGMEKANTEEFCISCHEMRNTVYQEYMDSVHYNNRSGVRATCPDCHVPHEFVPKMIRKLKASKELYGKIFGVIDTPQKFEAHRLTMAQNEWRRMKDNNSQECRNCHNFEYMDTTAQKSVAAKMHDQAVKDGQTCIDCHKGIAHKLPDMREVEPGF [P0ABL5]

>  <CLASS ASSIGNMENT>
c2

$$$$
>  <SEQUENCE CONTENT>
MSHTIRDKQKLKARASKIQGQVVALKKMLDEPHECAAVLQQIAAIRGAVNGLMREVIKGHLTEHIVHQGDELKREEDLDVVLKVLDSYIK

>  <CLASS ASSIGNMENT>
c3

$$$$
>  <SEQUENCE CONTENT>
MESGHRFDAQTLHSFIQAVFRQMGSEEQEAKLVADHLIAANLAGHDSHGIGMIPSYVRSWSQGHLQINHHAKTVKEAGAAVTLDGDRAFGQVAAHEAMALGIEKAHQHGIAAVALHNSHHIGRIGYWAEQCAAAGFVSIHFVSVVGIPMVAPFHGRDSRFGTNPFCVVFPRKDNFPLLLDYATSAIAFGKTRVAWHKGVPVPPGCLIDVNGVPTTNPAVMQESPLGSLLTFAEHKGYALAAMCEILGGALSGGKTTHQETLQTSPDAILNCMTTIIINPELFGAPDCNAQTEAFAEWVKASPHDDDKPILLPGEWEVNTRRERQKQGIPLDAGSWQAICDAARQIGMPEETLQAFCQQLAS

>  <CLASS ASSIGNMENT>
c2

$$$$
>  <SEQUENCE CONTENT>
MNLHEYQAKQLFARYGLPAPVGYACTTPREAEEAASKIGAGPWVVKCQVHAGGRGKAGGVKVVNSKEDIRAFAENWLGKRLVTYQTDANGQPVNQILVEAATDIAKELYLGAVVDRSSRRVVFMASTEGGVEIEKVAEETPHLIHKVALDPLTGPMPYQGRELAFKLGLEGKLVQQFTKIFMGLATIFLERDLALIEINPLVITKQGDLICLDGKLGADGNALFRQPDLREMRDQSQEDPREAQAAQWELNYVALDGNIGCMVNGAGLAMGTMDIVKLHGGEPANFLDVGGGATKERVTEAFKIILSDDKVKAVLVNIFGGIVRCDLIADGIIGAVAEVGVNVPVVVRLEGNNAELGAKKLADSGLNIIAAKGLTDAAQQVVAAVEGK [P0A836]

>  <CLASS ASSIGNMENT>
c3

$$$$
>  <SEQUENCE CONTENT>
MALLDFFLSRKKNTANIAKERLQIIVAERRRSDAEPHYLPQLRKDILEVICKYVQIDPEMVTVQLEQKDGDISILELNVTLPEAEELK [P0A734]

>  <CLASS ASSIGNMENT>
c1

$$$$
>  <SEQUENCE CONTENT>
MEKEQLIEIANTIMPFGKYKGRRLIDLPEEYLLWFARKDEFPAGKLGELMQITLLIKTEGLTQLVQPLKRPL [P0AD40]

>  <CLASS ASSIGNMENT>
c1

$$$$
>  <SEQUENCE CONTENT>
MQFSKMHGLGNDFMVVDAVTQNVFFSPELIRRLADRHLGVGFDQLLVVEPPYDPELDFHYRIFNADGSEVAQCGNGARCFARFVRLKGLTNKRDIRVSTANGRMVLTVTDDDLVRVNMGEPNFEPSAVPFRANKAEKTYIMRAAEQTILCGVVSMGNPHCVIQVDDVDTAAVETLGPVLESHERFPERANIGFMQVVKREHIRLRVYERGAGETQACGSGACAAVAVGIQQGLLAEEVRVELPGGRLDIAWKGPGHPLYMTGPAVHVYDGFIHL [P0A6K1]

>  <CLASS ASSIGNMENT>
c2

$$$$
>  <SEQUENCE CONTENT>
MKVLTVFGTRPEAIKMAPLVHALAKDPFFEAKVCVTAQHREMLDQVLKLFSIVPDYDLNIMQPGQGLTEITCRILEGLKPILAEFKPDVVLVHGDTTTTLATSLAAFYQRIPVGHVEAGLRTGDLYSPWPEEANRTLTGHLAMYHFSPTETSRQNLLRENVADSRIFITGNTVIDALLWVRDQVMSSDKLRSELAANYPFIDPDKKMILVTGHRRESFGRGFEEICHALADIATTHQDIQIVYPVHLNPNVREPVNRILGHVKNVILIDPQEYLPFVWLMNHAWLILTDSGGIQEEAPSLGKPVLVMRDTTERPEAVTAGTVRLVGTDKQRIVEEVTRLLKDENEYQAMSRAHNPYGDGQACSRILEALKNNRISL

>  <CLASS ASSIGNMENT>
c3

$$$$
>  <SEQUENCE CONTENT>
MNISDVAKITGLTSKAIRFYEEKGLVTPPMRSENGYRTYTQQHLNELTLLRQARQVGFNLEESGELVNLFNDPQRHSADVKRRTLEKVAEIERHIEELQSMRDQLLALANACPGDDSADCPIIENLSGCCHHRAG [P0A9G4]

>  <CLASS ASSIGNMENT>
c1

$$$$
>  <SEQUENCE CONTENT>
MLILISPAKTLDYQSPLTTTRYTLPELLDNSQQLIHEARKLTPPQISTLMRISDKLAGINAARFHDWQPDFTPANARQAILAFKGDVYTGLQAETFSEDDFDFAQQHLRMLSGLYGVLRPLDLMQPYRLEMGIRLENARGKDLYQFWGDIITNKLNEALAAQGDNVVINLASDEYFKSVKPKKLNAEIIKPVFLDEKNGKFKIISFYAKKARGLMSRFIIENRLTKPEQLTGFNSEGYFFDEDSSSNGELVFKRYEQR [P0A8I3]

>  <CLASS ASSIGNMENT>
c1

$$$$
>  <SEQUENCE CONTENT>
MQTEQQRAVTRLCIQCGLFLLQHGAESALVDELSSRLGRALGMDSVESSISSNAIVLTTIKDGQCLTSTRKNHDRGINMHVVTEVQHIVILAEHHLLDYKGVEKRFSQIQPLRYPRWLVALMVGLSCACFCKLNNGGWDGAVITFFASTTAMYIRQLLAQRHLHPQINFCLTAFAATTISGLLLQLPTFSNTPTIAMAASVLLLVPGFPLINAVADMFKGHINTGLARWAIASLLTLATCVGVVMALTIWGLRGWV [P0ADD5]

>  <CLASS ASSIGNMENT>
c3

$$$$

====

- TEST: total protein half-life in vivo (active degradation + dilution); higher = more stable protein
- CONDITION INFO: wild type E. coli NCM3722; growth: C-lim chemostat; doubling time 3 h

>  <SEQUENCE CONTENT>
MTARYIAIDWGSTNLRAWLYQGDHCLESRQSEAGVTRLNGKSPAAVLAEVTTDWREEKTPVVMAGMVGSNVGWKVAPYLSVPACFSSIGEQLTSVGDNIWIIPGLCVSHDDNHNVMRGEETQLIGARALAPSSLYVMPGTHCKWVQADSQQINDFRTVMTGELHHLLLNHSLIGAGLPPQENSADAFTAGLERGLNTPAILPQLFEVRASHVLGTLPREQVSEFLSGLLIGAEVASMRDYVAHQHAITLVAGTSLTARYQQAFQAMGCDVTAVAGDTAFQAGIRSIAHAVAN

>  <total protein half-life in vivo>
3.12 h

$$$$
>  <SEQUENCE CONTENT>
MSEKSIVQEARDIQLAMELITLGARLQMLESETQLSRGRLIKLYKELRGSPPPKGMLPFSTDWFMTWEQNVHASMFCNAWQFLLKTGLCNGVDAVIKAYRLYLEQCPQAEEGPLLALTRAWTLVRFVESGLLQLSSCNCCGGNFITHAHQPVGSFACSLCQPPSRAVKRRKLSQNPADIIPQLLDEQRVQAV [P0ABY7]

>  <total protein half-life in vivo>
0.252 h

$$$$
